Here the recorded IC50 is given for each entry.
testedTarget: human PD-1 / PD-L1-Ig binding on Jurkat cell line over-expressing human PD-1 (Jurkat-PD-1) (Homo sapiens)
Construct: expressed in transfected cells; host or cells: Jurkat
Sequence (Q15116 25-288): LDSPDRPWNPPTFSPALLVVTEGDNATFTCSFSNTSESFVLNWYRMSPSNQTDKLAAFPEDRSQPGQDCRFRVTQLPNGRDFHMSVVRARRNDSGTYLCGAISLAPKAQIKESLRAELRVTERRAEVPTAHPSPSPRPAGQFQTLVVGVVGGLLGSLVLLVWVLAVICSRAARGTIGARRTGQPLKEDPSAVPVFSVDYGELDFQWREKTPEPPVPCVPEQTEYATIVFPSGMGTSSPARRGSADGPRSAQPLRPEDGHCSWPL
measurementNotes: Jurkat-PD-1 Cell Binding High-Content Screening Assay (CBA)
Type: cell-based
statedConditions: Jurkat-PD-1 cells, PE-labeled PD-L1-Ig 20 nM final; read-out: Jurkat HPD1_PDL1 IC50
Where a SMILES comes first, the peptide text is derived from it. Bridges are numbered along the chain shown (N, C = ends). [ ]: non-standard residue; d: D form. Bip = N[C@@H](Cc1ccc(-c2ccccc2)cc1)C(=O)O; 4Pal = N[C@@H](Cc1ccncc1)C(=O)O; Cha = N[C@@H](CC1CCCCC1)C(=O)O; Nle = CCCC[C@H](N)C(=O)O; Orn = NCCC[C@H](N)C(=O)O; Dap = NC[C@H](N)C(=O)O
Numeric only. Scale: nM

The cases that follow already have their IC50 on record.
compound	IC50 (nM)
CC(C)C[C@H]1NC(=O)[C@H](CN)NC(=O)[C@H](C(C)C)NC(=O)[C@H](Cc2ccc(-c3ccccc3)cc2)NC(=O)[C@H](C(C)C)NC(=O)[C@H](Cc2c[nH]c3ccccc23)NC(=O)[C@H](CC(=O)O)NC(=O)[C@H](Cc2ccncc2)NC(=O)[C@H](CN)NC(=O)CSC[C@@H](C(=O)NCC(N)=O)NC(=O)[C@H](CO)NC(=O)[C@H](C(C)C)NC(=O)[C@H](CC2CCCCC2)NC(=O)[C@H](CC(N)=O)NC1=O [Compound 1651] ({CH2CO}-[Dap][4Pal]DWV[Bip]V[Dap][dL]N[Cha]VSCG-NH2; thioether N-14)	17.4
CC(C)C[C@H]1NC(=O)[C@H](CCCN)NC(=O)[C@H](CCC(=O)O)NC(=O)[C@H](Cc2ccc(-c3ccccc3)cc2)NC(=O)[C@H](C(C)C)NC(=O)[C@H](Cc2cccc(Cl)c2)NC(=O)[C@H](CC(=O)O)NC(=O)[C@H](Cc2ccc(OCC(=O)O)cc2)NC(=O)[C@H](Cc2cccnc2)NC(=O)CSC[C@@H](C(=O)N[C@@H](C)C(N)=O)NC(=O)[C@H]([C@@H](C)O)NC(=O)[C@H](C(C)C)NC(=O)[C@H](CC2CCCCC2)NC(=O)[C@H](CCN)NC1=O	10.7
CCCC[C@@H]1NC(=O)[C@H](CC(N)=O)NC(=O)[C@@H](CC(C)C)NC(=O)[C@H](CCCN)NC(=O)[C@H](C(C)C)NC(=O)[C@H](Cc2ccc(-c3ccccc3)cc2)NC(=O)[C@H](CC(C)C)NC(=O)[C@H](Cc2c[nH]c3ccccc23)NC(=O)[C@H](CC(=O)O)NC(=O)[C@H](Cc2ccc(O)cc2)NC(=O)[C@H](Cc2ccccc2)NC(=O)CSC[C@@H](C(=O)NCC(N)=O)NC(=O)[C@H](CO)NC(=O)[C@H](C(C)C)NC1=O [Compound 1339] ({CH2CO}-FYDWL[Bip]V[Orn][dL]N[Nle]VSCG-NH2; thioether N-14)	52

Query `CCCC[C@H]1NC(=O)[C@H](CCCN)NC(=O)[C@H]([C@@H](C)CC)NC(=O)[C@H](Cc2ccc(-c3ccccc3)cc2)NC(=O)[C@H](C(C)C)NC(=O)[C@H](Cc2c[nH]c3ccccc23)NC(=O)[C@H](CC(=O)O)NC(=O)[C@H](Cc2ccc(OCC(=O)O)cc2)NC(=O)[C@H](Cc2ccncc2)NC(=O)CSC[C@@H](C(=O)N[C@@H](C)C(N)=O)NC(=O)[C@H]([C@@H](C)O)NC(=O)[C@H](C(C)C)NC(=O)[C@H](CC2CCCCC2)NC(=O)[C@H](CCN)NC1=O` yields IC50 of 10.4
